Hi there, I'd appreciate the recorded growth inhibition for every entry that follows.
Assay: NCI Yeast Anticancer Drug Screen. Data for the rad14 strain (AID 159);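 also: 0% = growth of vehicle-treated control cultures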
Settings: S. cerevisiae rad14 strain growth inhibition; at 1.2 µM; hits give high values
Compounds without any hit were thinned out: in the full panel of roughly 79,000, 15% have a hit.
Answers are plain numbers, in %.

Example compounds with recorded growth inhibition:
Nc1nc(F)nc2c1ncn2C1OC(COP(=O)(O)O)C(O)C1O (stereo unspecified) = -1
Cc1cccc(/C=N\NC(=S)N2CCCCC2)n1 = -19
S=P(N1CC1)(N1CC1)N1CC1 = 0

Parameter requested: growth inhibition. Apply to each item below.
1. c1ccc(N2N=C3N(c4ccccc4)C2N3c2ccccc2)cc1
2. CC(=O)CC(=O)/C=C/c1cccs1
3. CCOC(=O)Nc1ccc2c(c1)Cc1ccccc1-2
4. COc1ccc(/C=C(\NC(=O)c2ccccc2)C(=O)NN(C)c2ccnc3cc(Cl)ccc23)cc1OC
5. CN(C)c1ccc(N=Nc2ccccn2)cc1
6. CCC(NC(C)c1ccccc1)C(=O)c1ccc(OCc2ccccc2)c(OCc2ccccc2)c1 (stereo unspecified)
7. O=C(O)c1cccc2cccc(-c3c4ccc(=O)cc-4oc4cc(O)ccc34)c12
8. [Pt].c1ccc(P(CCP(c2ccccc2)c2ccccc2)CCP(c2ccccc2)c2ccccc2)cc1

Response:
-33
-12
0
2
12
-1
10
4

The reported measurements were obtained from PubChem BioAssay (NCI).
